src = patent US20240270821A1

// EC50 lookup, one value per entry
target: human GcgR (Homo sapiens, UniProt P47871); assay: Functional cAMP activity in the presence of 1% HSA; format: cell-based; settings: read-out: cAMP Rel EC50, hGcgR
Sequence (P47871 26-477): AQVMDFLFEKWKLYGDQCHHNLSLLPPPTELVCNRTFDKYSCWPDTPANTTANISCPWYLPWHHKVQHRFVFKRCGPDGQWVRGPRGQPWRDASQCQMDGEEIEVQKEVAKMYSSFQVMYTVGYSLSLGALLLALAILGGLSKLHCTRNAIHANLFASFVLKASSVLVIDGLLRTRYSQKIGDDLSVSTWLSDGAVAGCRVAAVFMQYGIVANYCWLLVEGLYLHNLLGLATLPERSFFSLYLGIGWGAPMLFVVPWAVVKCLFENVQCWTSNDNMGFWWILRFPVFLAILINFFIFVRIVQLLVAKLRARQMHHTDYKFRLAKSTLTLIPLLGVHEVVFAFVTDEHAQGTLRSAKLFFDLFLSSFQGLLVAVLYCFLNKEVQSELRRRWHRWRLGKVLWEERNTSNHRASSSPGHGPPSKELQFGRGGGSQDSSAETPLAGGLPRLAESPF
Starred links: 1 amine or outer side, 2 acyl side, 3 side chain; linkers in the order of their positions; H or OH if unused. Non-standard residues stand in square brackets, D forms with d. Groups on a side chain read outwards from the residue. No end group written: not given here. *: point of attachment. C20 diacid = O=C(O)CCCCCCCCCCCCCCCCCCC(=O)*; C18 diacid = O=C(O)CCCCCCCCCCCCCCCCC(=O)*; αMePhe(2-F) = C[C@](N)(Cc1ccccc1F)C(=O)O; γGlu = O=C(O)[C@H](CCC(=O)[*:2])N[*:1]; αMe4Pal = C[C@](N)(Cc1ccncc1)C(=O)O; αMeY = C[C@](N)(Cc1ccc(O)cc1)C(=O)O; 4Pal = N[C@@H](Cc1ccncc1)C(=O)O; αMeL = CC(C)C[C@](C)(N)C(=O)O; αMeS = C[C@](N)(CO)C(=O)O; Orn = NCCC[C@H](N)C(=O)O; AEEA = NCCOCCOCC(=O)O; Aib = CC(C)(N)C(=O)O
State the answer as a number, implicitly in µM.

Some solved cases for reference:
Substance: H-Y[Aib]QGT[αMePhe(2-F)]TSD[4Pal][αMeS]I[αMeL]LD[Orn]K([AEEA-γGlu-C18 diacid])AQ[αMe4Pal]EFI[dE][αMeY]LIEGGPPSGEPPPEGE-NH2 [Example 1191]
Unit Abbrev: µM
EC50: 0.243
//
Substance: H-Y[Aib]QGTFTSD[4Pal]SQ[αMeL]LD[Orn]K([AEEA-γGlu-C18 diacid])AQ[αMe4Pal]AFIEYLIA[Aib]GPSSGEPPPSGSEE-NH2 [Example 1095]
Unit Abbrev: µM
EC50: 0.337

I have this substance here, H-Y[Aib]QGTFTSDFSK[αMeL]LDKK([AEEA-γGlu-C20 diacid])AQ[Aib]AFIEWLIEGGPSSGAPPPSEG-NH2 [Example 40] , and I need its recorded EC50.
2.75

What do we get for H-Y[Aib]QGT[αMePhe(2-F)]TSDYSKLLDKQAQK([AEEA-γGlu-C20 diacid])QFIEYLIEGGPSSGEPPPSEG-NH2 [Example 309] ?
3.91

Please answer likewise for H-Y[Aib]QGT[αMePhe(2-F)]TSDYSKLLDEIAQK([AEEA-γGlu-C20 diacid])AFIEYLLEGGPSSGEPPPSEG-NH2 [Example 303]
9.95

Follow-up entry: Y[Aib]QGTFTSDFSK[αMeL]LDKK([AEEA-γGlu-C20 diacid])AQ[Aib]AFIEYLLEGGPSSGEPPPTEG-NH2 [Example 36]
1.33

Also, Y[Aib]QGTFTSD[4Pal]SQ[αMeL]LD[Orn]K([γGlu-γGlu-C18 diacid])AQ[αMe4Pal]QFIE[αMeY]LIEGGPSSGEPPPSGSEE-NH2 [Example 1026] please.
2.08

Similarly, H-Y[Aib]QGTFTSDFS[Orn][αMeL]LDKK([AEEA-γGlu-C20 diacid])AQ[Aib]AFIEYLLAGGPSSGAPPPSGS[AEEA]-NH2 [Example 83] ?
1.27

Please give the result for Y[Aib]QGT[αMePhe(2-F)]TSD[4Pal][αMeS]I[αMeL]LD[Orn]K([γGlu-γGlu-C18 diacid])AQ[αMe4Pal]EFI[dE][αMeY]LIEGGPSSGEPPPEGGGE-NH2 [Example 762] too.
0.119

Okay, and Y[Aib]QGTFTSD[4Pal]SQ[αMeL]LDKK([AEEA-γGlu-C18 diacid])AQ[Aib]AFIE[αMeY]LIEGGPSSGAPPPSGS-NH2 [Example 838] ?
3.07

Same question, H-Y[Aib]QGTFTSDFS[Orn][αMeL]LDKK([AEEA-γGlu-C18 diacid])AQ[Aib]AFIEYLLE[Aib]G[4Pal]SSGAPPPSGE-NH2 [Example 248] this time
0.241

How about H-Y[Aib]QGTFTSD[4Pal]SQ[αMeL]LD[Orn]K([AEEA-γGlu-C18 diacid])AQ[Aib]AFIE[αMeY]LLEGGPSSGAPPPSGS-NH2 [Example 911] ?
2.39

* * *

Attribute: pEC50
molecular target: hGLP-1R (Homo sapiens); test: Functional cAMP activation in the presence of 0.1% casein (no HSA); type: cell-based; conditions: 0.1% casein, no HSA; geometric mean; read-out: Relative cAMP EC50, hGLP-1R;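 also: intracellular cAMP rise after 30 min at 37 °C read by HTRF, normalized between buffer only (0%) and maximal control ligand (100%), four-parameter variable-slope fit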
Sequence (P43220 24-463): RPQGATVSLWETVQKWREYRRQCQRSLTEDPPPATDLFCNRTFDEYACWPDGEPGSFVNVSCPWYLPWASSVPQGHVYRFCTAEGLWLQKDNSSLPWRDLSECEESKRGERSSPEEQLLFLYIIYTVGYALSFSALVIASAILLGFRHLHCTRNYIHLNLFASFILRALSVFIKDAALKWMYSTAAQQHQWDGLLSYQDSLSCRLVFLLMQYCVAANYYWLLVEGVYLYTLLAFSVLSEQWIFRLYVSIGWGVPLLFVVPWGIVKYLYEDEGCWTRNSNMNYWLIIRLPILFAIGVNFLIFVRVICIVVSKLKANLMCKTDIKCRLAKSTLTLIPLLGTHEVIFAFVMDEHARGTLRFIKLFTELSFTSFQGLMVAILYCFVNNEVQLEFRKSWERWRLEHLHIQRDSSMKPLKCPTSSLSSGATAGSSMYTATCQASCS
Starred links: 1 amine or outer side, 2 acyl side, 3 side chain; linkers in the order of their positions; H or OH if unused. Non-standard residues stand in square brackets, D forms with d. Groups on a side chain read outwards from the residue. No end group written: not given here. *: point of attachment. C18 diacid = O=C(O)CCCCCCCCCCCCCCCCC(=O)*; αMePhe(2-F) = C[C@](N)(Cc1ccccc1F)C(=O)O; γGlu = O=C(O)[C@H](CCC(=O)[*:2])N[*:1]; αMe4Pal = C[C@](N)(Cc1ccncc1)C(=O)O; αMeY = C[C@](N)(Cc1ccc(O)cc1)C(=O)O; 4Pal = N[C@@H](Cc1ccncc1)C(=O)O; αMeL = CC(C)C[C@](C)(N)C(=O)O; αMeS = C[C@](N)(CO)C(=O)O; Orn = NCCC[C@H](N)C(=O)O; AEEA = NCCOCCOCC(=O)O; Aib = CC(C)(N)C(=O)O
// pEC50 is dimensionless: -log10 of concentration (M)

Solved cases below.
Substance: H-Y[Aib]Q[dA]T[αMePhe(2-F)]TSD[4Pal]SI[αMeL]LD[Orn]K([AEEA-γGlu-C18 diacid])AQ[αMe4Pal]EFI[dE][αMeY]LVEGGPSSGAPPPSGS-NH2 [Example 1205]
pEC50: 9.28

Substance: H-Y[Aib]Q[dA]T[αMePhe(2-F)]TSD[4Pal][αMeS]I[αMeL]LD[Orn]K([γGlu-γGlu-C18 diacid])AQ[Aib]EFI[dE][αMeY]LIEGGPSSGAPPPSGSE-NH2 [Example 1224]
pEC50: 9.42

Substance: Y[Aib]QGT[αMePhe(2-F)]TSD[4Pal][αMeS]I[αMeL]LD[Orn]K([AEEA-γGlu-C18 diacid])AQ[αMe4Pal]EFI[dE][αMeY]LIEGGPPS[Aib]EPPP[Orn]GE-NH2 [Example 1193]
pEC50: 9.26

Substance: H-Y[Aib]QGT[αMePhe(2-F)]TSD[4Pal][αMeS]I[αMeL]LD[Orn]K([AEEA-γGlu-C18 diacid])AQ[αMe4Pal]EFI[dE][αMeY]LIEGGPSSGAPPPEGGGEEE-NH2 [Example 1217]
pEC50: 9.12

Substance: H-Y[Aib]QGT[αMePhe(2-F)]TSD[4Pal][αMeS]I[αMeL]LD[Orn]K([AEEA-γGlu-C18 diacid])AQ[αMe4Pal]EFI[dE][αMeY]LIEGGPPS[Aib][Orn]PPPSGGGE-NH2 [Example 1199]
pEC50: 9.30

Quick check: pEC50 of H-Y[Aib]QGT[αMePhe(2-F)]TSD[4Pal][αMeS]I[αMeL]LD[Orn]K([γGlu-γGlu-C18 diacid])AQ[αMe4Pal]EFI[dE][αMeY]LIEGGPSSGAPPPSGGGEEE-NH2 [Example 1219] ?
9.20
